system tested: Mucolipin-1 (Homo sapiens) (UniProt Q9GZU1)
Sequence (Q9GZU1 whole entry, looked up): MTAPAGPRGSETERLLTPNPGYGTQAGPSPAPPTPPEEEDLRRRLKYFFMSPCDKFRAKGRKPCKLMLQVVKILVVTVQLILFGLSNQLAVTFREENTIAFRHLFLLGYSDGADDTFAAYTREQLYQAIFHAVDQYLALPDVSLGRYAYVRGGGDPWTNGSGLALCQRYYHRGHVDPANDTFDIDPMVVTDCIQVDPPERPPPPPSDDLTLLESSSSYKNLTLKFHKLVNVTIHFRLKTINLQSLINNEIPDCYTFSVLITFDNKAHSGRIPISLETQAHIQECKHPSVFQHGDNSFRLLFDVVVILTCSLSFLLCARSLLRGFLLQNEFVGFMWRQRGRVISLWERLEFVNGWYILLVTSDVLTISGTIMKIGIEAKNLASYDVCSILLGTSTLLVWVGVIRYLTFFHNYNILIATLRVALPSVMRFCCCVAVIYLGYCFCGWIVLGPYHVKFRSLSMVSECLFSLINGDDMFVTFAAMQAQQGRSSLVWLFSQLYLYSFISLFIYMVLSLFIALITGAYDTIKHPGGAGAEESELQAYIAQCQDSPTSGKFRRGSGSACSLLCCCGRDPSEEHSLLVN
run description: qHTS for Inhibitors of the Human Mucolipin Transient Receptor Potential 1 (TRPML1);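 note: stimulus is agonist 54-4 at its EC80 concentration; % is set by controls: 0 for no effect and ±100 for the full control effect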
stated conditions: TRPML1-inducible cells, Ca2+ dye fluorescence, FDSS; hits give low values; inhibition of EC80 agonist-evoked calcium signal
Screen size: about 390,000 compounds; about 60 (0.02%) were called active. The entries come from a sample that favours actives as a whole.
Form field: activity change, negative = inhibition (one value per entry).
# number only, unit % dropped from output

>>> reported_measurement("COc1ccc(-c2c3c(=O)n(C)c(=O)n(C)c3c3c(C)nc4ccccc4n23)cc1")
-0.184
>>> reported_measurement("COc1ccc(C2CC(O)(c3ccccc3)Oc3cc(C)cc(C)c32)cc1 (stereo not given)")
9.65
>>> reported_measurement("COc1ccc(NC(=O)CSc2nc3ccccc3n2CC(=O)N2CCCCC2C)cc1 (stereo not given)")
9.59
>>> reported_measurement("O=C1CN(Cc2ccccc2)S(=O)(=O)c2ccccc21")
2.64
>>> reported_measurement("COc1ccc(CNC(=O)c2cc3c(=O)[nH]c4ccccc4c3s2)cc1")
-6.35

Value of activity change, negative = inhibition reported for the molecule O=C(Nc1ccc2nc(SCC(=O)N3CCCc4ccccc43)sc2c1)c1ccc(F)cc1 is -5.54

Value of activity change, negative = inhibition reported for the molecule Cc1ccccc1C(=O)NCc1nc(-c2ccc(Cl)cc2)no1 is -1.57

Value of activity change, negative = inhibition reported for the molecule COc1ccc(C2=NC3(CCCCC3)N(CC(=O)Nc3ccc(C(C)C)cc3)C2=O)cc1 is 8.59

Value of activity change, negative = inhibition reported for the molecule Cc1ccc(SCC(=O)Nc2ccc3oc(-c4ccccc4C)nc3c2)cc1 is 7.73

Value of activity change, negative = inhibition reported for the molecule CN1CCN(C2(CNC(=O)COc3ccc(C(C)(C)C)cc3)CCCCC2)CC1 is 16.1

* * *

system tested: Mucolipin-1 (Homo sapiens)
run description: qHTS for Inhibitors of the Human Mucolipin Transient Receptor Potential 1 (TRPML1);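 note: stimulus is agonist 54-4 at its EC80 concentration; % is set by controls: 0 for no effect and ±100 for the full control effect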
stated conditions: TRPML1-inducible cells, Ca2+ dye fluorescence, FDSS; hits give low values; inhibition of EC80 agonist-evoked calcium signal
Source text: Mutations of human Mucolipin transient receptor potential 1 (TRPML1) cause type IV mucolipidosis (ML4), a devastating neurodegenerative disease in young children. […] Currently, there is no treatment for ML4. […] TRPML1-DL cells are dissociated from flasks, counted and, brought up to a density of 500,000 cells per mL of media containing a 1X Tet inducer. […]
The whole screen tested about 390,000 compounds, of which about 60 (0.02%) were called active. This excerpt belongs to a sample that is enriched for actives.
quantity name: activity change, negative = inhibition

>>> reported_measurement("COc1ccc(N2CCN(C(=O)C3CCCN(C(=O)c4cc5sccc5n4C)C3)CC2)cc1 (stereo not given)")
"-10.9% (inactive)"

Value of activity change, negative = inhibition reported for the compound Cc1ccc(-c2nn3c(=O)cc(CN4CCN(C(=O)Nc5cccc(C(F)(F)F)c5)CC4)nc3s2)cc1 is -11.5% (inactive)

Value of activity change, negative = inhibition reported for the compound CCc1nc2onc(C)c2c(=O)n1CC(=O)O is -8.95% (inactive)

Value of activity change, negative = inhibition reported for the compound CCc1ccc(-n2nc(C)c3c(C)cc(=O)n(CC(=O)Nc4ccc(F)cc4C)c32)cc1 is 1.68% (inactive)

Value of activity change, negative = inhibition reported for the compound Fc1ccccc1Oc1ncnc2c1oc1ccccc12 is -7.01% (inactive)
